system under test: blocked SNARE[change] (SNARE[change] with CPXcen residues 48-134 pre-bound) ( | rat | human, UniProt P63027;P32851;P60880-2;O14810)
protocol text: ITC
property label: Kd

[ask] Quick one: give measured Kd for wild-type complexin fragment wtCPX (hCPX1 residues 26-83) (domain or fragment) KDPDAAKKEEERQEALRQAEEERKAKYAKMEAEREAVRQGIRDKYGIKKKEEREAEAQ
[reply] ~10 µM
